Test Target: DLG4_2, P78352
Sequence (P78352 155-259): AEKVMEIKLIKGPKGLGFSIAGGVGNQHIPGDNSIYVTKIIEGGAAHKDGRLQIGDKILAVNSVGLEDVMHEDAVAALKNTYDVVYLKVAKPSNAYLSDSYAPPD
Protocol Notes: holdup assay
Design: key: below the threshold = too weak to quantify, mostly under pKd 3.1 to 4
Setup Conditions: plain residues with an end cap or a label only (N-terminal biotin on a linker: ado-ado)
Provide the reported pKd of each item.
Just the number, please.

response.value for TACCHSETVV [TGFA, P01135] (field: pKd) = 4.82

The recorded pKd for ETQVTAETVI [TMEM225B, P0DP42] is 4.05

Per the record, TKGPRGPTRV [SAPCD1, Q5SSQ6] has pKd of 4.53

response.value for QSARLWETSI [ADAM22, Q9P0K1] (field: pKd) = 4.18

Cited source for all entries: paper PMC9482650
